biological target: Arginase-2, mitochondrial (Homo sapiens) (UniProt P78540); assay: in vitro enzyme assay to detect the production of urea directly proportional to the activity of Arginase II; type: functional; set-up: scale not given: in the data most compounds retested in dose-response had high values; conditions: 33.3 µM
Sequence (P78540 whole entry): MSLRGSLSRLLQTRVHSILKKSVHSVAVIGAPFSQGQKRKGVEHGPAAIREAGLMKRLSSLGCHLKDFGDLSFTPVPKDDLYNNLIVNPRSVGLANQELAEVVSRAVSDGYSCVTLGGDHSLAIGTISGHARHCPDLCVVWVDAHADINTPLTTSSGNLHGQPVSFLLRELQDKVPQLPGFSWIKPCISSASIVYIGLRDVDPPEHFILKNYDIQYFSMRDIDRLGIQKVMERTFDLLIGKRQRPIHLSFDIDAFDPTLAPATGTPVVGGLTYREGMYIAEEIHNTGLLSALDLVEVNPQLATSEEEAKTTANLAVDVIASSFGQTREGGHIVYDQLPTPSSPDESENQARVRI
Readout type: Percent Effect (%)
I only need the number, in %, no unit after it.

See these solved cases before continuing.
>>> observed_value("CNC(=O)CN1CCOCC2(CCCN(Cc3cccnc3)C2)C1 (centres undefined)")
-0.833
>>> observed_value("c1cncc(OC[C@@H]2CC[C@H]3[C@H](CCN3Cc3cccs3)O2)c1")
2.1
>>> observed_value("O=C(CN1CCN(C(=O)Cc2ccc3c(c2)OCCO3)CC1)NC1CC1")
-2.13
>>> observed_value("CN(CCc1ccc(F)cc1)Cc1nc2c(cnn2C)c(=O)[nH]1")
-6.47
>>> observed_value("CCc1ccc(CN2CCN(C)c3ncccc3C2)o1")
-3.24

Reported Percent Effect, compound O=C1CSC(c2cccs2)c2cnn(C3CCCC3)c2N1 (centres undefined) : ____ -35.7

Reported Percent Effect, compound CCc1nnc(C(C)N2CCCN(C(=O)Oc3ccccc3)CC2)o1 (centres undefined) : ____ -3.55

Find the recorded Percent Effect belonging to O=C(C1CC1)N1CCC2(CC1)OCCO2 and report it. 2.37

Give the measured Percent Effect of CCC(O)CN1CCN(C(=O)Cc2cc(Cl)ccc2OC)CC1 (centres undefined) . -3.89

Fill in the blank: the reported Percent Effect of Cc1cc(N2CCN3CCCCC3C2)n2nc(C)c(C)c2n1 (centres undefined) is ____. -0.442

----------
Target: Aspartate--tRNA(Asp/Asn) ligase (Mycobacterium tuberculosis (strain ATCC 25618 / H37Rv)) (UniProt P9WFW3)
Sequence (whole entry): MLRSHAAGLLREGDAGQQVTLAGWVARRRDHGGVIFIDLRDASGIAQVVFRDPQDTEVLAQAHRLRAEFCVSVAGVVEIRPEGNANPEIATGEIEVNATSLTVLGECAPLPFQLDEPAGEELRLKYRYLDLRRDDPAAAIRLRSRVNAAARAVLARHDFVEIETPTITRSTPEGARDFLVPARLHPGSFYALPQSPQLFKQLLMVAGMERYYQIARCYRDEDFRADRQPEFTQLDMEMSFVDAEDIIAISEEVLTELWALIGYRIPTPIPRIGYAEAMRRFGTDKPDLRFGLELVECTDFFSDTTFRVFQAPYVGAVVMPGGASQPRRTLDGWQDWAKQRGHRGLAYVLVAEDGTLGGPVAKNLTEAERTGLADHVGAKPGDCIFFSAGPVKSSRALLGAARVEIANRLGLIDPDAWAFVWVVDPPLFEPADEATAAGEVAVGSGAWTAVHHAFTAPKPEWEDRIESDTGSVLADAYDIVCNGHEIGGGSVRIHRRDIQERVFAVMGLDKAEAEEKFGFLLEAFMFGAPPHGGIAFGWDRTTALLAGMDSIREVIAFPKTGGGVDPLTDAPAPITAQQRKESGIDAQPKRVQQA
Assay: Assay for Asp RNA synthetase-1 from Mycobacterium tuberculosis
Format: functional
Design: scale not given: in the data most compounds retested in dose-response had high values
Settings: 30 µM
Readout type: Percent Effect (%)
Quick reminder: number only, in %, skip the unit.

>>> observed_value("CNc1cc(N2CCCC2CNCc2cnc(C)cn2)ncn1 (configuration not stated)")
-0.989
>>> observed_value("N#Cc1cc(NC(=O)c2ccsc2)ccc1N1CCC(O)CC1")
3.33
>>> observed_value("COc1ccc(C[C@H]2CN(c3nnc(C)s3)CC[C@@H]2OC)cc1")
7.75

Now let's try a different one.
Fill in the blank: the reported Percent Effect of O=C(NCCNC(=O)c1scnc1Cl)c1ccccc1 is ____. 2.84

----------
Listed below: Percent Effect values for each entry.
Target: Aspartate--tRNA(Asp/Asn) ligase (Mycobacterium tuberculosis (strain ATCC 25618 / H37Rv)) (UniProt P9WFW3)
Sequence (whole entry): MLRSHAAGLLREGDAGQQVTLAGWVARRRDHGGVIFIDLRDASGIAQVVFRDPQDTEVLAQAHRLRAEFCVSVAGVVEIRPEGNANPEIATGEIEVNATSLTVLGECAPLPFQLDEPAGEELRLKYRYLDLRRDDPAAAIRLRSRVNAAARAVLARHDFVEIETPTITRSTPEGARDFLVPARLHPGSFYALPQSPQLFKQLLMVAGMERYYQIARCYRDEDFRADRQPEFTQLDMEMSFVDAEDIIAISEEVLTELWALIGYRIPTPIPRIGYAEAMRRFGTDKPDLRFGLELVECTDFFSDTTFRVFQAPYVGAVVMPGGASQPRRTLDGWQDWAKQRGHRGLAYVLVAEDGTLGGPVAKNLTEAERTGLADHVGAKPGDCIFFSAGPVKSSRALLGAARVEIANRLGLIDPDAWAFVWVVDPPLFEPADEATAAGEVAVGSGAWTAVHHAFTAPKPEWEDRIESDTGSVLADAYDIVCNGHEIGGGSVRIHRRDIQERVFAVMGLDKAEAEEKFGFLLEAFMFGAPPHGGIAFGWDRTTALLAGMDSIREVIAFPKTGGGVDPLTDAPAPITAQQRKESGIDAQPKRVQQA
Assay: Assay for Asp RNA synthetase-1 from Mycobacterium tuberculosis
Assay type: functional
Parameters: scale not given: in the data most compounds retested in dose-response had high values
Conditions: 30 µM
Unit % implied. Number only.

// below: answered compounds
>>> observed_value("O=C(c1ccco1)N1C[C@H]2CCCN(CC3CCOCC3)[C@H]2C1")
11.5
>>> observed_value("COCC1Cn2nnc(-c3cnn(C)c3)c2CN1Cc1ccco1 (centres undefined)")
0.436
>>> observed_value("O=C1[C@@H]2CCN(Cc3ccoc3)C[C@@H]2OCCN1c1ccccc1")
-0.779

Look at this compound and give its reported Percent Effect. CC(C)C(=O)N1CCN(Cc2csc(-c3ncccn3)n2)CC1 -4.22

If you can, please state the reported Percent Effect value of NCC1Cn2nnc(-c3cccc(F)c3)c2CO1 (centres undefined) . 1.16

Which value of Percent Effect has been reported for COc1cccc(-c2nccnc2C2CCN(C(C)=O)CC2)c1 in the records? -3.41

What measured Percent Effect goes with COCCCN(C)Cc1nc2c(cnn2C)c(=O)[nH]1 ? -1.71

Which Percent Effect is reported for this compound? c1cnnc(N2CCCC2CNCc2nc3ccccc3o2)c1 (centres undefined) 7.18

Query: Percent Effect; subject: Fc1cccc(Oc2ccc(CNCC3CNc4ccnn4C3)cn2)c1 (centres undefined) -6.37

----------
Biological target: Aspartate--tRNA(Asp/Asn) ligase (Mycobacterium tuberculosis (strain ATCC 25618 / H37Rv))
Sequence (whole entry): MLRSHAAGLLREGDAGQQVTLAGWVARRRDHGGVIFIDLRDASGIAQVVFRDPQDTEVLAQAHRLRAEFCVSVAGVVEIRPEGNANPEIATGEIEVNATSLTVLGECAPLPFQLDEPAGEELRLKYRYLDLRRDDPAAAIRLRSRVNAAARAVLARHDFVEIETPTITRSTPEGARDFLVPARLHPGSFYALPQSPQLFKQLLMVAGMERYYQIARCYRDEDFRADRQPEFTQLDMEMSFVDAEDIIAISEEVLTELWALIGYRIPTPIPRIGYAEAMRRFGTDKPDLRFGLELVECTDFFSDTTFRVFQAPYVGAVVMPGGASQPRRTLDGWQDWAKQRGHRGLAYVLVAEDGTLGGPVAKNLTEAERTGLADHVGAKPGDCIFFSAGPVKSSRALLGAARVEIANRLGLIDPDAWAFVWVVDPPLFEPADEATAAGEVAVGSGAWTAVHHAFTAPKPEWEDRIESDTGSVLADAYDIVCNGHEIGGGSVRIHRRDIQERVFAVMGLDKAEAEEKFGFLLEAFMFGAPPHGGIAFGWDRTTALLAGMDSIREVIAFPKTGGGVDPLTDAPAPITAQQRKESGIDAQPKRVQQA
Test: Assay for Asp RNA synthetase-1 from Mycobacterium tuberculosis
Type: functional
Set-up: scale not given: in the data most compounds retested in dose-response had high values
Conditions: 30 µM
Entries and their Percent Effect
Report the figure in % without appending any unit label.

Worked cases, answers included:
>>> observed_value("COc1ccc(-n2ccc(C(=O)N3CCC(C(N)=O)C3)n2)cc1 (configuration not stated)")
1.17
>>> observed_value("CC1CCN(S(=O)(=O)c2cccn(CC(=O)NC3CCCC3)c2=O)CC1")
-2.16
>>> observed_value("CCC1CN(C(=O)NCCOc2ccc3c(c2)OCO3)CCO1 (configuration not stated)")
-0.509
>>> observed_value("Cc1cnn(CC2CCCN2C(=O)CCc2nc3ccccc3[nH]2)c1 (configuration not stated)")
-0.857
>>> observed_value("COc1ccc(C(=O)N2CCCCC2c2nc(C)cs2)nn1 (configuration not stated)")
-4.46

Quick one: Percent Effect for O=C(c1cccc(F)c1)N1CCN2C[C@H](OCc3cccnc3)C[C@H]2C1 ? -1.22

GET /values?readout=Percent Effect&item= COc1ccccc1CC(=O)N1CCC(NCc2cccnc2)CC1 1.11

Cited source for all entries: ChEMBL document CHEMBL3988442
